Entries and their ED50 values follow.
Target: Opioid receptor (Mus musculus) (UniProt P42866+P32300+P33534)
Sequence (P32300 whole entry, looked up): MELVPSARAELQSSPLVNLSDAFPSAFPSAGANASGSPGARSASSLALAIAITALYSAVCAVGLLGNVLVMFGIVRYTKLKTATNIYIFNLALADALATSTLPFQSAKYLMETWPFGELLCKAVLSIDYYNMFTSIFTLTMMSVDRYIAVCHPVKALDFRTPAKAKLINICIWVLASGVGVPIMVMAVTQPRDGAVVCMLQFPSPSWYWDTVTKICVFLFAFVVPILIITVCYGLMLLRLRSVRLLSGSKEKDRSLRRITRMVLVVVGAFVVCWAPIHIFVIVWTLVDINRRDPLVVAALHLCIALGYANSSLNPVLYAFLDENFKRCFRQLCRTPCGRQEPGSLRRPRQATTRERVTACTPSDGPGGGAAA
Sequence (P33534 whole entry, looked up): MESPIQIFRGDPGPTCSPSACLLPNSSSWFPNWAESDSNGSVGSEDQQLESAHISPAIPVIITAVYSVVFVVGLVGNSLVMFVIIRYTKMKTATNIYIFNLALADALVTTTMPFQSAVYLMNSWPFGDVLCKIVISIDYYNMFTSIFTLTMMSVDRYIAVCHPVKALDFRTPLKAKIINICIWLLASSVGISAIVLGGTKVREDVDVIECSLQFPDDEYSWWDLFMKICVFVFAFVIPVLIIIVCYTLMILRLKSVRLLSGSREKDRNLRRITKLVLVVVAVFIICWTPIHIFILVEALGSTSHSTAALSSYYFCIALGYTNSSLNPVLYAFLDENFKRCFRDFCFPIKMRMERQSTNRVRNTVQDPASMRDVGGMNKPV
Sequence (P42866 whole entry, looked up): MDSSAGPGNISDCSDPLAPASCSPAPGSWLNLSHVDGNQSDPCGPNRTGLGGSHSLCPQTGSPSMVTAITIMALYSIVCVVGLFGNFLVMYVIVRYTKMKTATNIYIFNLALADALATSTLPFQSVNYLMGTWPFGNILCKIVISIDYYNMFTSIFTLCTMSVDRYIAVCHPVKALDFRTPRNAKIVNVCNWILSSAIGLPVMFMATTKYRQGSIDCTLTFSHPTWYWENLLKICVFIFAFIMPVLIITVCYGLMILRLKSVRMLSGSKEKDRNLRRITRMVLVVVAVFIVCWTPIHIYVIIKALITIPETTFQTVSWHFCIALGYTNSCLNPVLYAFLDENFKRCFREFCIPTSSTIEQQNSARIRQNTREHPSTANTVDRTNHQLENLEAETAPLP
Assay: Using the PPQ (paraphenylquinone) assay selective opioid receptor agonist activity was established in mice
Assay type: functional
Unit mg/kg implied. Number only.

Illustrative cases are given below, each with its answer.
{"columns": ["COMPOUND", "ED50 / mg/kg"],
 "data": [
  ["C#CCCCN1CC[C@]2(C)c3cc(O)ccc3CC1[C@@H]2C", 12],
  ["CC#CCN1CC[C@]2(C)c3cc(O)ccc3CC1[C@@H]2C (stereo in doubt; 12)", 0.1],
  ["C[C@H]1C2Cc3ccc(O)cc3[C@@]1(C)CCN2CCC#N", 0.05],
  ["C[C@H]1C2Cc3ccc(O)cc3[C@@]1(C)CCN2CCCC#N", 0.01],
  ["C[C@H]1C2Cc3ccc(O)cc3[C@@]1(C)CCN2CCCCC#N", 3]
]}

API: the following record is the query input.
Note ED50 for the compound shown: "C=CCCCN1CC[C@]2(C)c3cc(O)ccc3CC1[C@@H]2C" 1.4

* * *

Target: Mu-type opioid receptor (Mus musculus, UniProt P42866)
Sequence (P42866 whole entry): as the sequence (P42866 whole entry, looked up) above
Ki less than 10 nM is criterion met; Ki greater than or equal to 10 nM is criterion not met.

{"columns": ["STRUCTURE_STRING", "LABEL_VALUE"],
 "data": [
  ["C=CCCN1CC[C@]2(C)c3cc(O)ccc3CC1[C@@H]2C", "criterion met"],
  ["C=CCCCN1CC[C@]2(C)c3cc(O)ccc3CC1[C@@H]2C", "criterion not met"],
  ["C#CCCN1CC[C@]2(C)c3cc(O)ccc3CC1[C@@H]2C", "criterion met"],
  ["C[C@H]1C2Cc3ccc(O)cc3[C@@]1(C)CCN2CCCCC#N", "criterion not met"]
]}

Find out if reported Ki for "C[C@H]1C2Cc3ccc(O)cc3[C@@]1(C)CCN2CC#N" is less than 10 nM criterion not met

* * *

Consider the following compounds and their measured log10(ED50) readings.
Target: Opioid receptor (Mus musculus) (UniProt P42866+P32300+P33534)
Test: Evaluated in vivo for the antinociceptive and opioid antagonist assays in ICR male mice, Tail-Flick agonist and antagonist tests was performed
Assay type: functional, organism-based
log10 ED50, mg/kg

Worked set:
{"columns": ["STRUCTURE_STRING", "EXPERIMENTAL_SYSTEM", "log10(ED50)"],
 "data": [
  ["C=CCCCCN1CC[C@]2(C)c3cc(O)ccc3CC1[C@@H]2C", "Opioid receptor (Mus musculus) (UniProt P42866+P32300+P33534)", -0.52],
  ["C[C@H]1C2Cc3ccc(O)cc3[C@@]1(C)CCN2CCC#N", "Opioid receptor (Mus musculus) (UniProt P42866+P32300+P33534)", -0.52],
  ["C=CCCN1CC[C@]2(C)c3cc(O)ccc3CC1[C@@H]2C", "Opioid receptor (Mus musculus) (UniProt P42866+P32300+P33534)", -1.30],
  ["C#CCCN1CC[C@]2(C)c3cc(O)ccc3CC1[C@@H]2C", "Opioid receptor (Mus musculus) (UniProt P42866+P32300+P33534)", -1.30],
  ["C[C@H]1C2Cc3ccc(O)cc3[C@@]1(C)CCN2CC#N", "Opioid receptor (Mus musculus) (UniProt P42866+P32300+P33534)", 1.08]
]}

Please supply the value of reported log10(ED50) for the item "C[C@H]1C2Cc3ccc(O)cc3[C@@]1(C)CCN2CCCCC#N" 1.18

Hello, please tell me recorded log10(ED50) for this one: "C[C@H]1C2Cc3ccc(O)cc3[C@@]1(C)CCN2CCCC#N" -0.40

* * *

Target: Sigma 2 receptor
Test: Ki value determined against Sigma opioid receptor type 2 using [3H]DTG (5 nM) with 1 uM dextrallorphan to mask sigma-1 binding
Parameters: species or system Mus musculus
PROPERTY_LABEL: Ki (nM)
Please state the figure in nM; there is no need to write the unit.

Please review the entries below; each comes with its answer.
{"columns": ["MOLECULE", "QUANTITY_UNIT", "ASSAY_RESULT"],
 "data": [
  ["C#CCCCN1CC[C@]2(C)c3cc(O)ccc3CC1[C@@H]2C", "nM", 440],
  ["C=CCCCN1CC[C@]2(C)c3cc(O)ccc3CC1[C@@H]2C", "nM", 180],
  ["C[C@H]1C2Cc3ccc(O)cc3[C@@]1(C)CCN2CCC#N", "nM", 51000],
  ["C#CCCN1CC[C@]2(C)c3cc(O)ccc3CC1[C@@H]2C", "nM", 2200]
]}

Specify Ki for CC#CCN1CC[C@]2(C)c3cc(O)ccc3CC1[C@@H]2C (stereo in doubt; 12) and stop. 4400

Using the record for "C=CCN1CC[C@]2(C)c3cc(O)ccc3CC1[C@@H]2C" , state its measured Ki. 3200

Return value of Ki for input "C[C@H]1C2Cc3ccc(O)cc3[C@@]1(C)CCN2CCCCCC#N" , no commentary. 380

* * *

Biological target: Kappa-type opioid receptor (Mus musculus) (UniProt P33534)
Sequence (P33534 whole entry): as the sequence (P33534 whole entry, looked up) above
Assay: Ki value determined against Opioid receptor kappa 1 using [3H]U69, 593 at the Kd concentration 0.95 nM
PROPERTY_LABEL: inhibition (%)
# number only, unit % dropped from output

// known answers, use as guide
{"columns": ["COMPOUND", "QUANTITY_UNIT", "inhibition"],
 "data": [
  ["CC1C2Cc3ccc(O)cc3[C@@]1(C)CCN2CC#N (some centres undefined)", "%", 20.4],
  ["C=CCCN1CC[C@]2(C)c3cc(O)ccc3CC1C2C (some centres undefined)", "%", 35.5],
  ["CC1C2Cc3ccc(O)cc3[C@@]1(C)CCN2CCCCCCC#N (some centres undefined)", "%", 17.7]
]}

Moving on to the next compound.
Provide inhibition, system Kappa-type opioid receptor (Mus musculus) (UniProt P33534), entry C=CCN1CC[C@]2(C)c3cc(O)ccc3CC1C2C (some centres undefined) 31

* * *

Target: Sigma 2 receptor
Experiment: Ki value determined against Sigma opioid receptor type 2 using [3H]DTG(5nM) with 1 uM dextrallorphan to mask sigma1 binding
Design: species or system Mus musculus
PROPERTY_LABEL: pKi
Entry type: numeric. Quantity: pKi, the -log10 of concentration in molar units.

For CC#CCN1CC[C@]2(C)c3cc(O)ccc3CC1[C@@H]2C (stereo in doubt; 26) , write its pKi. 4.92

* * *

Reported pKi is given for each of the following molecules.
Target: Sigma non-opioid intracellular receptor 1 (Mus musculus)
Sequence (O55242 whole entry): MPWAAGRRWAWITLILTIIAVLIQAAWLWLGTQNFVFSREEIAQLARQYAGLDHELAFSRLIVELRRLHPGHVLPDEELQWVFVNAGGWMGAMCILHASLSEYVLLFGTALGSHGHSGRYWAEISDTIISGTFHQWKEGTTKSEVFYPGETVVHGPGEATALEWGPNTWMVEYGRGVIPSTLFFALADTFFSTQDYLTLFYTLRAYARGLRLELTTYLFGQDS
Test: Ki value determined against Sigma opioid receptor type 1 using [(+)-[3H]pentazocine at the Kd concentration 2nM
Field pKi (float): negative decimal logarithm of the concentration in molar.

Would you please look over these solved cases?
{"columns": ["MOLECULE", "EXPERIMENTAL_SYSTEM", "PROPERTY_LABEL", "ASSAY_RESULT"],
 "data": [
  ["C#CCCCN1CC[C@]2(C)c3cc(O)ccc3CC1[C@@H]2C", "Sigma non-opioid intracellular receptor 1 (Mus musculus)", "pKi", 6.70],
  ["C[C@H]1C2Cc3ccc(O)cc3[C@@]1(C)CCN2CCCCC#N", "Sigma non-opioid intracellular receptor 1 (Mus musculus)", "pKi", 6.31],
  ["CC#CCN1CC[C@]2(C)c3cc(O)ccc3CC1[C@@H]2C (stereo in doubt; 26)", "Sigma non-opioid intracellular receptor 1 (Mus musculus)", "pKi", 6.80],
  ["C[C@H]1C2Cc3ccc(O)cc3[C@@]1(C)CCN2CC#N", "Sigma non-opioid intracellular receptor 1 (Mus musculus)", "pKi", 4.89],
  ["C#CCCN1CC[C@]2(C)c3cc(O)ccc3CC1[C@@H]2C", "Sigma non-opioid intracellular receptor 1 (Mus musculus)", "pKi", 5.23],
  ["C=CCCCN1CC[C@]2(C)c3cc(O)ccc3CC1[C@@H]2C", "Sigma non-opioid intracellular receptor 1 (Mus musculus)", "pKi", 7.30],
  ["C[C@H]1C2Cc3ccc(O)cc3[C@@]1(C)CCN2CCCCCCC#N", "Sigma non-opioid intracellular receptor 1 (Mus musculus)", "pKi", 7.10],
  ["CC#CCN1CC[C@]2(C)c3cc(O)ccc3CC1[C@@H]2C (stereo in doubt; 12)", "Sigma non-opioid intracellular receptor 1 (Mus musculus)", "pKi", 5.01]
]}

Give a short answer stating reported pKi for "C=CCN1CC[C@]2(C)c3cc(O)ccc3CC1[C@@H]2C" . 4.96

Annotate the molecule "C=CCCN1CC[C@]2(C)c3cc(O)ccc3CC1[C@@H]2C" with its measured pKi. 5.80

Give the value of pKi reported for the following: "C[C@H]1C2Cc3ccc(O)cc3[C@@]1(C)CCN2CCCC#N" 5.77

Could you please provide reported pKi for "C[C@H]1C2Cc3ccc(O)cc3[C@@]1(C)CCN2CCC#N" ? Thanks! 5.01

Supply measured pKi of "C[C@H]1C2Cc3ccc(O)cc3[C@@]1(C)CCN2CCCCCC#N" in your reply. 6.19

Supply reported pKi belonging to this molecule: "C=CCCCCN1CC[C@]2(C)c3cc(O)ccc3CC1[C@@H]2C" 7.66
